// values below are IC50; system is cGMP-inhibited 3',5'-cyclic phosphodiesterase 3A (Homo sapiens, UniProt Q14432)
Sequence (Q14432 whole entry): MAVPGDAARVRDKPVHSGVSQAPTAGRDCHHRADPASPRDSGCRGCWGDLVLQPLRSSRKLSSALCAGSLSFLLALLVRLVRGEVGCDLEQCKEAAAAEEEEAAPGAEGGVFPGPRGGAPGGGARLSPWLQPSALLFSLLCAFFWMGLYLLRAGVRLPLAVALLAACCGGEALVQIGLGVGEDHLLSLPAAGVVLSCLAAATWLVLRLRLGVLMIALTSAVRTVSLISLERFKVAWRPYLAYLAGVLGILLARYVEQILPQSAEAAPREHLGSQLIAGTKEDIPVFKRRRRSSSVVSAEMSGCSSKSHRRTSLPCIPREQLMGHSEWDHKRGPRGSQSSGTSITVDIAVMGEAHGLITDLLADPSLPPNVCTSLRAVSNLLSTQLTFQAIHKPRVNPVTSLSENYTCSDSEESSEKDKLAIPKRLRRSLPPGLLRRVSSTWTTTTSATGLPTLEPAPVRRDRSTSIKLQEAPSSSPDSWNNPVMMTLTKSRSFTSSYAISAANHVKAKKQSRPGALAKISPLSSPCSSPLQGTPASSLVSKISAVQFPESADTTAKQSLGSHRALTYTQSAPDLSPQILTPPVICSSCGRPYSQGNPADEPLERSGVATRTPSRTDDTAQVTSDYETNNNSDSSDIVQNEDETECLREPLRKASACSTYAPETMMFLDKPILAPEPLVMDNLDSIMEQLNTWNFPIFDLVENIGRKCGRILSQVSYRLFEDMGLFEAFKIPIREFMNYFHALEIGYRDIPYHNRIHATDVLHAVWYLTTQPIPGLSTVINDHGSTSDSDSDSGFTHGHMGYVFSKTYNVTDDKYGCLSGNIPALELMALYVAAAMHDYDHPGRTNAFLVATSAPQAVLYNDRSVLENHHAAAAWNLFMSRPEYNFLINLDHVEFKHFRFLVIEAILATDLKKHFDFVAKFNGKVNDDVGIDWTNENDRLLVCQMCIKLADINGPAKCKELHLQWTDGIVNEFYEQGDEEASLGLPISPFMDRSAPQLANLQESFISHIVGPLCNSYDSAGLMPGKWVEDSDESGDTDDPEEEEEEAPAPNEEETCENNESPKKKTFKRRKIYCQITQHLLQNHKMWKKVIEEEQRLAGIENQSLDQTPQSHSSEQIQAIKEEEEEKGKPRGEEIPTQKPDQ
Observable: IC50 (µM)

a. O=C1Nc2c(Cl)ccc(OCCCS(=O)(=O)O)c2C2(CCCCC2)N1
b. CCOC(=O)c1ccc(COc2ccc(Cl)c3c2C2(CCCCC2)NC(=O)N3)o1
Response body: label of entry with the larger IC50; valid values a , b . Write down the label attached to your selection. b
(b: 78 µM, a: 12.7 µM)

I. N#CCOc1ccc(Cl)c2c1C1(CCCCC1)NC(=O)N2
II. O=C1Nc2c(Cl)ccc(OCc3nn[nH]n3)c2C2(CCCCC2)N1
Response body: label of entry with the larger IC50; valid values I , II . Write down the label attached to your selection. I

----------
biological target: cGMP-specific 3',5'-cyclic phosphodiesterase (Homo sapiens, UniProt O76074); test: Inhibition of human PDE5 partially purified from MCF-7 cells
pIC50: −log10 of the molar value.
Observable: pIC50

A. CN(C)CCCOc1ccc(Cl)c2c1C1(CCCCC1)NC(=O)N2
B. O=C1Nc2c(Cl)ccc(OCCCS(=O)(=O)O)c2C2(CCCCC2)N1
Hey, which is lower on measured pIC50, A or B ? Write down the label attached to your selection. A
(A: 4.01, B: 4.22)

----------
biological target: UniProtKB O76074; assay: Inhibition of human PDE5 partially purified from MCF-7 cells
As shown below, each of these compounds has a reported IC50 value.

Below: 5 compounds and their reported IC50.
{"columns": ["Compound", "IC50"],
 "data": [
  ["O=C1Nc2c(Cl)ccc(OCc3nn[nH]n3)c2C2(CCCCC2)N1", "> 88 µM"],
  ["CNCC(O)COc1ccc(Cl)c2c1C1(CCCCC1)NC(=O)N2 (stereo unspecified)", "> 101 µM"],
  ["O=C1Nc2c(Cl)ccc(OCc3noc(O)n3)c2C2(CCCCC2)N1", "> 101 µM"],
  ["CN(C)CC(O)COc1ccc(Cl)c2c1C1(CCCCC1)NC(=O)N2 (stereo unspecified)", "> 101 µM"],
  ["NCCOCCOc1ccc(Cl)c2c1C1(CCCCC1)NC(=O)N2", "> 101 µM"]
]}

Now look at this one.
Requested read-out: IC50. Entry: O=C1Nc2c(Cl)ccc(OCCO)c2C2(CCCCC2)N1 > 91 µM

----------
biological target: 3',5'-cyclic-AMP phosphodiesterase 4D (Homo sapiens)
Sequence (Q08499 whole entry): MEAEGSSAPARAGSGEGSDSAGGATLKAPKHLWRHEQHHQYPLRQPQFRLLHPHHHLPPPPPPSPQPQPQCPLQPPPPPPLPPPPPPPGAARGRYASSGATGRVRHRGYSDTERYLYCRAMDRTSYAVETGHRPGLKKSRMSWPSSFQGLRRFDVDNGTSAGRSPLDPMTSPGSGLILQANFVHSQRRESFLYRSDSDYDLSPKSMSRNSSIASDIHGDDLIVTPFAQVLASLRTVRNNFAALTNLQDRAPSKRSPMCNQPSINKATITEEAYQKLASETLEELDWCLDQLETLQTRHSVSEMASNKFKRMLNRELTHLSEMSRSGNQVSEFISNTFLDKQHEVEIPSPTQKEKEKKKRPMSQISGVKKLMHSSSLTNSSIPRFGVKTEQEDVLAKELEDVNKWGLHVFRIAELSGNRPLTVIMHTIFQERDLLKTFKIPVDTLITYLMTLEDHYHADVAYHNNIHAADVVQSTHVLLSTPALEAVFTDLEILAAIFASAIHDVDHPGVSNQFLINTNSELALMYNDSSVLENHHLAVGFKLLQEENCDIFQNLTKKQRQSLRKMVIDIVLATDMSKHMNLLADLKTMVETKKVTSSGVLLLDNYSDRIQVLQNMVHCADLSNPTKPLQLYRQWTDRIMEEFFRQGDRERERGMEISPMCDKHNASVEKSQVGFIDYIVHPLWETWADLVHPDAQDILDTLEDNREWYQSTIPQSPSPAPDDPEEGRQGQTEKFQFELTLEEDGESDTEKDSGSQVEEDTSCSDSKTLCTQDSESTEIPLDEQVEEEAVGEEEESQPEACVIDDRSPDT
Observable: IC50 (µM)

Below: 4 compounds and their reported IC50.
{"columns": ["Mol", "IC50, µM"],
 "data": [
  ["O=C(O)COc1ccc(Cl)c2c1C1(CCCCC1)NC(=O)N2", 15],
  ["O=C1Nc2c(Cl)ccc(OCc3noc(O)n3)c2C2(CCCCC2)N1", 0.82],
  ["CNCCOc1ccc(Cl)c2c1C1(CCCCC1)NC(=O)N2", 53.2],
  ["CN(C)CCOc1ccc(Cl)c2c1C1(CCCCC1)NC(=O)N2", 3.28]
]}

P. O=C1Nc2c(Cl)ccc(OCCN3CCOCC3)c2C2(CCCCC2)N1
Q. NCCOc1ccc(Cl)c2c1C1(CCCCC1)NC(=O)N2
Hey, which is lower on measured IC50, P or Q ? Write down the label attached to your selection. P

----------
test: Solubility in Na2HPO4/NaH2PO4 buffer at pH 7.4; type: physicochemical
Observable: solubility (µg/mL)

Below: 2 compounds and their reported solubility.
{"columns": ["Compound", "Observable", "Readout Units", "Test Result"],
 "data": [
  ["NCCOc1ccc(Cl)c2c1C1(CCCCC1)NC(=O)N2", "solubility", "µg/mL", 190],
  ["O=C1Nc2c(Cl)ccc(OCc3noc(O)n3)c2C2(CCCCC2)N1", "solubility", "µg/mL", 113]
]}

P. CN(C)CC(O)COc1ccc(Cl)c2c1C1(CCCCC1)NC(=O)N2 (centres undefined)
Q. O=C1Nc2c(Cl)ccc(OCCN3CCOCC3)c2C2(CCCCC2)N1
Response body: label of entry with the larger solubility; valid values P , Q . Write down the label attached to your selection. P
